Target: human SSAO (Homo sapiens, UniProt Q16853)
Sequence (Q16853 29-763 limits assumed): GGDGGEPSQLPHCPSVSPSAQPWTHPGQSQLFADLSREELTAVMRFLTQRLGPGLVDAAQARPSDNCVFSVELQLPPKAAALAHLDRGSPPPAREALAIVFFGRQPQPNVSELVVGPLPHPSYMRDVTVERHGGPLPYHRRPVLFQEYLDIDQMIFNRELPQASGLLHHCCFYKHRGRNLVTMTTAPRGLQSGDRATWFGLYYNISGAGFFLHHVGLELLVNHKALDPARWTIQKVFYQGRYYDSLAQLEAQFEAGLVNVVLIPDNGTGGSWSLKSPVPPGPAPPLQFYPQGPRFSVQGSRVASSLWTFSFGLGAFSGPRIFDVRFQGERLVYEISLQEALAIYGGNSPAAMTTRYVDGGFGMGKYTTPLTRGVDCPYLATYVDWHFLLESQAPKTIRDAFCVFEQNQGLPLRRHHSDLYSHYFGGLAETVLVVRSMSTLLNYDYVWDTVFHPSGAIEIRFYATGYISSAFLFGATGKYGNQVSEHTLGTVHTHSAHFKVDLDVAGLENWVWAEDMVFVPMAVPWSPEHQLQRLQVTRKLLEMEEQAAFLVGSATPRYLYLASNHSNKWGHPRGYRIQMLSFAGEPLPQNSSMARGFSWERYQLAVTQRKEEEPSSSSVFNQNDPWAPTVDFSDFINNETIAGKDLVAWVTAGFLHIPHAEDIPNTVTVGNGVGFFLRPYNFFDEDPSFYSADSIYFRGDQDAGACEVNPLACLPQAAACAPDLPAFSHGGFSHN
Experiment: SSAO enzyme inhibition assay (benzylamine substrate; HRP-coupled hydrogen peroxide detection or 14C-benzaldehyde detection)
Details: purified recombinantly expressed human SSAO, benzylamine as substrate, r.t.; read-out: SSAO inhibitory activity IC50
pIC50: −log10 of the molar value. Where a name gives a salt, the structure may show the parent alone.
Exercise: for every item that follows, state its recorded pIC50.

pIC50 in this record for NCC(=O)N1CCC(c2cn(-c3ccc(Cl)cc3)c3cnccc23)CC1 [Compound 16, hydrochloride] : > 7.00

pIC50 in this record for Cc1ccc(-n2nc(N3CCCOCC3)c3ccncc32)cc1 : > 7.00

pIC50 in this record for Clc1ccc(-n2cc(C3CCOCC3)c3ccncc32)cc1 : > 7.00

pIC50 in this record for Clc1ccc(-n2nc(C3CCN(Cc4cc[nH]n4)CC3)c3ccncc32)cc1 : 6.30 to 7.00

pIC50 in this record for Clc1ccc(-n2nc(C3CCOCC3)c3ncncc32)cc1 : 5.60 to 6.30

pIC50 in this record for COc1cc2c(C3CCOCC3)nn(-c3ccc(Cl)cc3)c2cn1 : 5.60 to 6.30

pIC50 in this record for Clc1ccc(-c2cn(CC3CCOC3)c3ccncc23)cc1 (centres unmarked) : 5.60 to 6.30

pIC50 in this record for OCC1CCN(Cc2cn(-c3ccc(Cl)cc3)c3cnccc23)CC1 : 6.30 to 7.00

pIC50 in this record for Cc1ccc(-n2nc(N3CCOCC3C(=O)NCCN)c3ccncc32)cc1 (centres unmarked) [Compound 79, dihydrochloride] : 6.30 to 7.00

pIC50 in this record for Cc1ccc(-n2nc(N3CCOCC3)c3ccncc32)c(F)c1 : > 7.00

pIC50 in this record for Cc1ccc(-n2nc(C3CCOCC3)c3ccncc32)cn1 : 5.60 to 6.30
